Assay: Selectivity index, ratio of IC50 for african green monkey Vero cells to MIC for Mycobacterium tuberculosis H37Rv
Type: functional
Field: Selectivity Index. Provide a value for each of the molecules that follow.

Task: What value of measured Selectivity Index is listed for CCOC(=O)C1=C(C)NC(=N)NC1c1cn(-c2ccccc2)nc1-c1ccc(Cl)cc1 (stereo not given) ?
Result: >3.2

Task: # get_value(readout='Selectivity Index', item= CCOC(=O)C1=C(C)NC(=O)NC1c1cn(-c2ccccc2)nc1-c1ccc([N+](=O)[O-])cc1 (stereo not given) )
Result: >500

Task: What value of Selectivity Index has been reported for the following molecule? COC(=O)C1=C(C)NC(=O)NC1c1cn(-c2ccccc2)nc1-c1ccc(Br)cc1 (stereo not given)
Result: >1.6

Task: Could you share which Selectivity Index value was measured for CCOC(=O)C1=C(C)NC(SC)NC1c1cn(-c2ccccc2)nc1-c1ccc(C)cc1 (stereo not given) ?
Result: 4.7

Task: Requested read-out: Selectivity Index. Entry: CCOC(=O)C1=C(C)NC(=S)NC1c1cn(-c2ccccc2)nc1-c1ccc(C)cc1 (stereo not given)
Result: 5.7
